FYI, the data here is from ChEMBL document CHEMBL1208778.

Tested on: OVCAR-3
RUN DESCRIPTION: Growth inhibition of human OVCAR-3 cells
Type: functional
MEASURED PARAMETER: GI50 (µM)

smiles_text=COc1cc(/C=C/C(=O)c2cccc(-n3cc(-c4ccccc4)[nH]c3=O)c2)cc(OC)c1OC measured_parameter=GI50 numeric_readout=1.23
smiles_text=COc1cc(/C=C/C(=O)c2cccc(-n3cc(-c4cc(OC)c(OC)c(OC)c4)[nH]c3=O)c2)cc(OC)c1OC measured_parameter=GI50 numeric_readout=1.48
smiles_text=COc1cc(/C=C/C(=O)c2cccc(-n3cc(-c4ccc(Cl)cc4)[nH]c3=O)c2)ccc1O measured_parameter=GI50 numeric_readout=1.56
smiles_text=O=C(/C=C/c1cccc(O)c1)c1cccc(-n2cc(-c3ccc(Cl)cc3)[nH]c2=O)c1 measured_parameter=GI50 numeric_readout=1.56
